# system tested: Human GLP-1 receptor stably expressing cells (hGLP-1R/CHO-K1 cells) (Homo sapiens, UniProt P43220)
# Construct: expressed in transfected cells
# Sequence (P43220 24-463): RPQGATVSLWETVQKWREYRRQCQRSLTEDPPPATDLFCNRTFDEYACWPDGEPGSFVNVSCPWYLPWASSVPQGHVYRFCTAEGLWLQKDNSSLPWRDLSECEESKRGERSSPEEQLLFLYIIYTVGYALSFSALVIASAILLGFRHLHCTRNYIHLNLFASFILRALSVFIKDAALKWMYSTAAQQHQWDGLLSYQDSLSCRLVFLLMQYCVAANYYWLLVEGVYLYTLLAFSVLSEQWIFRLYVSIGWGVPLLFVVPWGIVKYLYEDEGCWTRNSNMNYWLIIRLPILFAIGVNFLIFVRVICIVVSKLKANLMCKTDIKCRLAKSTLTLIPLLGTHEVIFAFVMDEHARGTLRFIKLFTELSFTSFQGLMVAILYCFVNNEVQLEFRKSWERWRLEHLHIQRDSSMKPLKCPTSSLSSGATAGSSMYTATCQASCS
# experimental protocol: Measurement of GLP-1 receptor agonist activity (cAMP assay)
# Type: cell-based
# reported conditions: CHO-K1, maximum effect; cAMP with 2 nM human GLP-1 (7-36) = 100%, DMSO only = 0%; read-out: Emax
measurement kind: Emax (%)
Your answer should be a plain number; it is taken to be in %.

C[C@H]1c2nc(NCc3ccc(Cl)cc3)c(C(F)(F)F)cc2CCN1Cc1nc2c(F)cc(C(=O)O)cc2n1C[C@@H]1CCO1 | 109

Give its Emax value. Item: "C[C@H]1c2nc(OCc3ccc(F)cc3F)c(Cl)cc2CCN1Cc1nc2ccc(C(=O)O)cc2n1C[C@@H]1CCO1"
124

Please give the result for "COc1cc(C(=O)O)cc2c1nc(CN1CCc3cc(C#N)c(OCc4ccccc4Cl)nc3[C@@H]1C)n2C[C@@H]1CCO1" too.
109

Please give the result for "C[C@H]1c2nc(NCc3ccc(Cl)cc3)c(C(F)(F)F)cc2CCN1Cc1nc2c(Cl)cc(C(=O)O)cc2n1C[C@@H]1CCO1" too.
104

Please give the result for "C[C@H]1c2cc(OCc3ccccc3Cl)c(C(F)F)cc2CCN1Cc1nc2ccc(C(=O)O)cc2n1C[C@@H]1CCO1" too.
88

Please give the result for "C[C@H]1c2nc(OCc3c(F)cc(Cl)cc3F)c(C#N)cc2CCN1Cc1nc2c(Cl)cc(C(=O)O)cc2n1C[C@@H]1CCO1" too.
122

Please give the result for O=C(O)c1ccc2nc(C3CC34CCc3cc(C(F)(F)F)c(OCc5ccc(Cl)cc5F)cc3C4)n(C[C@@H]3CCO3)c2c1 (stereo partly drawn) too.
75.3

Please give the result for "C[C@H]1c2nc(OCc3ccc(Cl)cn3)c(C(F)F)cc2CCN1Cc1nc2c(F)cc(C(=O)O)cc2n1C[C@@H]1CCO1" too.
110

Please give the result for "C[C@H]1c2nc(OCc3ccc(Cl)cc3)c(Cl)cc2CCN1Cc1nc2ccc(C(=O)O)cc2n1C[C@@H]1CCO1" too.
136

Please give the result for "C[C@H]1c2nc(NCc3ccc(C#N)cc3F)c(C(F)(F)F)cc2CCN1Cc1nc2c(Cl)cc(C(=O)O)cc2n1C[C@@H]1CCO1" too.
103

Please give the result for "COc1cc(C(=O)O)cc2c1nc(CN1CCc3cc(C(F)(F)F)c4c(c3[C@@H]1C)O[C@@](C)(c1ccc(Cl)cc1F)O4)n2C[C@@H]1CCO1" too.
105

Please give the result for "C[C@H]1c2nc(OCc3ccccc3Cl)c(C(F)F)cc2CCN1Cc1nc2ccc(C(=O)O)cc2n1C[C@@H]1CCO1" too.
97

----------
# system tested: Human GLP-1 receptor stably expressing cells (hGLP-1R/CHO-K1 cells) (Homo sapiens, UniProt P43220)
# Construct: expressed in transfected cells
# experimental protocol: Measurement of GLP-1 receptor agonist activity (cAMP assay)
# Format: cell-based
# reported conditions: CHO-K1, maximum effect; cAMP with 2 nM human GLP-1 (7-36) = 100%, DMSO only = 0%; read-out: Emax
measurement kind: Emax (%)
Your answer should be a plain number; it is taken to be in %.

C[C@H]1c2c(cc(C(F)(F)F)c3c2O[C@@](C)(c2ccc(Cl)cc2F)O3)CCN1Cc1nc2ccc(C(=O)O)cc2n1C[C@@H]1CCO1 | 146
C[C@H]1c2nc(OCc3ccc(Cl)cc3F)c(C#N)cc2CCN1Cc1nc2c(F)cc(C(=O)O)cc2n1C[C@@H]1CCO1 | 128
C[C@H]1c2c(cc(C(F)(F)F)c3c2O[C@@](C)(c2ccc(Cl)cn2)O3)CCN1Cc1nc2c(F)cc(C(=O)O)cc2n1C[C@@H]1CCO1 | 101
C[C@H]1c2nc(OCc3ccc(F)cc3)c(Cl)cc2CCN1Cc1nc2ccc(C(=O)O)cc2n1C[C@@H]1CCO1 | 130

The record that follows has no Emax shown yet.
Give its Emax value. Item: "C[C@H]1c2nc(OCc3ccc(Cl)cc3F)c(C#N)cc2CCN1Cc1nc2ccc(C(=O)O)cc2n1C[C@@H]1CCO1"
106

----------
Consider the following compounds and their measured log10 of EC50 readings.
# system tested: Human GLP-1 receptor stably expressing cells (hGLP-1R/CHO-K1 cells) (Homo sapiens)
# experimental protocol: Measurement of GLP-1 receptor agonist activity (cAMP assay)
# reported conditions: increase in cAMP concentration in hGLP-1R/CHO-K1 cells, 37° C. 1 hour
Lab note - EC50 converted to log10 from values in nM.

// worked examples, log10 of EC50 included
C[C@H]1c2nc(OCc3ncc(Cl)cc3Cl)c(C(F)(F)F)cc2CCN1Cc1nc2ccc(C(=O)O)cc2n1C[C@@H]1CCO1 | -0.43
C[C@H]1c2nc(OCc3c(F)cc(F)cc3F)c(C(F)F)cc2CCN1Cc1nc2ccc(C(=O)O)cc2n1C[C@@H]1CCO1 | -0.53
C[C@H]1c2nc(OCc3ccc(Cl)cc3Cl)c(Cl)cc2CCN1Cc1nc2c(F)cc(C(=O)O)cc2n1C[C@@H]1CCO1 | -1.23
C[C@H]1c2nc(NCc3c(F)cc(Cl)cc3F)c(C(F)(F)F)cc2CCN1Cc1nc2c(Cl)cc(C(=O)O)cc2n1C[C@@H]1CCO1 | -1.45
C[C@H]1c2c(cc(C(F)(F)F)c3c2O[C@@](C)(c2ccc(Cl)cn2)O3)CCN1Cc1nc2c(F)cc(C(=O)O)cc2n1C[C@@H]1CCO1 | -0.17

// fetch Human GLP-1 receptor stably expressing cells (hGLP-1R/CHO-K1 cells) (Homo sapiens) log10 of EC50 for "C[C@H]1c2c(cc(C(F)(F)F)c3c2O[C@](C)(c2ccc(Cl)cc2F)O3)CCN1Cc1nc2ccc(C(=O)O)cc2n1C[C@@H]1CCO1"
2.83

Please give the result for "C[C@H]1c2nc(OCc3nc4ccccn4n3)c(C(F)(F)F)cc2CCN1Cc1nc2ccc(C(=O)O)cc2n1C[C@@H]1CCO1" too.
1.51

Please give the result for "C[C@H]1c2nc(OCc3ccc(C#N)c4occc34)c(C(F)(F)F)cc2CCN1Cc1nc2ccc(C(=O)O)cc2n1C[C@@H]1CCO1" too.
-0.02

Please give the result for "C[C@H]1c2nc(OCc3ccc(F)cc3F)c(C(F)F)cc2CCN1Cc1nc2ccc(C(=O)O)c(F)c2n1C[C@@H]1CCO1" too.
-0.83

Please give the result for "COc1cc(C(=O)O)cc2c1nc(CN1CCc3cc(C(F)(F)F)c(NCc4cc(F)c(Cl)cc4F)nc3[C@@H]1C)n2C[C@@H]1CCO1" too.
-1.71

Please give the result for "C[C@H]1c2nc(OCc3ccc(F)cc3F)c(Cl)cc2CCN1Cc1nc2ccc(C(=O)O)nc2n1C[C@@H]1CCO1" too.
-0.23

----------
# system tested: Human GLP-1 receptor stably expressing cells (hGLP-1R/CHO-K1 cells) (Homo sapiens)
# experimental protocol: Measurement of GLP-1 receptor agonist activity (cAMP assay)
# reported conditions: increase in cAMP concentration in hGLP-1R/CHO-K1 cells, 37° C. 1 hour
measurement kind: log10(EC50) (log10 of the value in nM)
Lab note - EC50 converted to log10 from values in nM.

COc1cc(Cl)ccc1COc1nc2c(cc1C(F)F)CCN(Cc1nc3ccc(C(=O)O)cc3n1C[C@@H]1CCO1)[C@H]2C | -1.02
C[C@H]1c2nc(NCc3ccc(Cl)cc3Cl)c(C(F)(F)F)cc2CCN1Cc1nc2c(F)cc(C(=O)O)cc2n1C[C@@H]1CCO1 | -0.69
C[C@H]1c2cc(OCc3ccc(F)cc3)c(C(F)F)cc2CCN1Cc1nc2ccc(C(=O)O)cc2n1C[C@@H]1CCO1 | 1.21
Cc1cc(-c2cc(C(=O)O)cc3c2nc(CN2CCc4cc(C(F)(F)F)c(OCc5ccc(Cl)cc5F)nc4[C@@H]2C)n3C[C@@H]2CCO2)on1 | 0.16
C[C@H]1c2nc(OCc3c(F)cc(F)cc3F)c(C#N)cc2CCN1Cc1nc2c(Cl)cc(C(=O)O)cc2n1C[C@@H]1CCO1 | -0.82

Give its log10(EC50) value. Item: "COc1cc(C(=O)O)cc2c1nc(CN1CCc3cc(C(F)(F)F)c(NCc4ccc(Cl)cc4)nc3[C@@H]1C)n2C[C@@H]1CCO1"
-1.28

Please give the result for "C[C@H]1c2nc(OCc3ccc(Cl)cc3Cl)c(Cl)cc2CCN1Cc1nc2ccc(C(=O)O)cc2n1C[C@@H]1CCO1" too.
-1.01

Please give the result for "C[C@H]1c2cc(OCc3ccc(Cl)cc3)c(C(F)F)cc2CCN1Cc1nc2ccc(C(=O)O)cc2n1C[C@@H]1CCO1" too.
0.46

Please give the result for "C[C@H]1c2nc(OCc3ccc(Cl)cc3)c(C(F)F)cc2CCN1Cc1nc2ccc(C(=O)O)cc2n1C[C@@H]1CCO1" too.
-0.60

Please give the result for "COc1cc(C(=O)O)cc2c1nc(CN1CCc3cc(C#N)c(OCc4ccc(Cl)cn4)nc3[C@@H]1C)n2C[C@@H]1CCO1" too.
-0.79
